- target entity: Protein-tyrosine kinase 6 (Homo sapiens, UniProt Q13882); further: in the data inactive means no Kd found up to 30 µM
- Sequence (Q13882 whole entry): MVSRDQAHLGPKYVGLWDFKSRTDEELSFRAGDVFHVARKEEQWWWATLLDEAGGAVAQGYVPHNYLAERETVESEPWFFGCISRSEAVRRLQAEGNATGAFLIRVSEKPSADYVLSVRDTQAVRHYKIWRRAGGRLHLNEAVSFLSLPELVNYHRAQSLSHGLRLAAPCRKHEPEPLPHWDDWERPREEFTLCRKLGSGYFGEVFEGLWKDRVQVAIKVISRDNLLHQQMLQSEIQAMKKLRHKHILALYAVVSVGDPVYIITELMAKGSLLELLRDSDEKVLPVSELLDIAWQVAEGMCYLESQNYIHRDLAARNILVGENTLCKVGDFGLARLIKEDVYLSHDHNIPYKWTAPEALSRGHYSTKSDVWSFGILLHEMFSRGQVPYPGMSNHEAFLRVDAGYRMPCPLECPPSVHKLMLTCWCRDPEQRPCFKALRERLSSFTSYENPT
Activity calls are given as the source filed them.
Kindly supply the reported Kd values for the records listed here.

Incoming: Record request: Kd value, item `CN1C/C=C/CCOc2cccc(c2)-c2ccnc(n2)Nc2cccc(c2)C1`
Outgoing: > 30 µM (inactive)

Incoming: Record request: Kd value, item `CO[C@H]1C[C@@H]2CC[C@@H](C)[C@@](O)(O2)C(=O)C(=O)N2CCCC[C@H]2C(=O)O[C@H]([C@H](C)C[C@@H]2CC[C@@H](O)[C@H](OC)C2)CC(=O)[C@H](C)/C=C(\C)[C@@H](O)[C@@H](OC)C(=O)[C@H](C)C[C@H](C)/C=C/C=C/C=C/1C`
Outgoing: > 30 µM (inactive)

Incoming: Record request: Kd value, item `O=C(Nc1nc2cccc(-c3ccc(CN4CCS(=O)(=O)CC4)cc3)n2n1)C1CC1`
Outgoing: > 30 µM (inactive)
